Can you tell me fluorescence intensity at bottom (B) of microplate after antigen binding for the items I'm about to list?
- Assay target: T1, Anti-CRP antibody(r)
- T1 construct: also called rabbit IgG (CRP)
- Procedure text: labelled peptide on antibody immobilised on microplate; antigen CRP
Ends that are not written are not given here. FAM = carboxyfluorescein (FAM) fluorescent label
Numbers only.

# Binder, Result value
rows = [
    ("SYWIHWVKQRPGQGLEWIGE (not fully specified (N-terminus), Synthetic 20-mer homologous to the FR2 region of the heavy chain; The fluorescent label differs between experiments; also called H1 switching peptide; third peptide compound H1) [H1 peptide]", 3600),
    ("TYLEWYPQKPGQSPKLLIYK (not fully specified (N-terminus), Synthetic 20-mer homologous to the FR2 region of the light chain; The label differs between experiments; also called L1 switching peptide; first peptide compound L1) [L1 peptide]", 3460),
    ("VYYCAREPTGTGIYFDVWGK (not fully specified (N-terminus), Synthetic 20-mer homologous to the FR3 or FR4 region of the heavy chain; The label differs between experiments; also called H2 switching peptide; fourth peptide compound H2) [H2 peptide]", 22200),
]

With those in mind, consider the next binder.
Provide fluorescence intensity at bottom (B) of microplate after antigen binding value for the following binder: {FAM}-VYYCFQGSHVPFTK (Synthetic 14-mer homologous to the FR3 or FR4 region of the light chain; also called L2 switching peptide; second peptide compound L2) [L2 peptide]
11200
